// data source = patent US12336981B2

Some molecules, each annotated with its measured pIC50.
Target: NAMPT (Homo sapiens)
Construct: His tag; host or cells: E. coli
Assay: Biochemical inhibition assay: NAMPT enzymatic reaction, NMN quantified by mass spectrometry
Conditions: NAMPT enzymatic reaction; read-out: Biochem IC50
Interpret pIC50 as the negative base-10 log of the concentration measured in mol/L.

Answered examples (8):
Cc1ccc(S(=O)(=O)c2ccc(CNC(=O)c3cnc4nccn4c3)cc2)cc1F | 8.64
COc1cccc(NS(=O)(=O)c2ccc(CNC(=O)c3cc4cnccc4[nH]3)cc2)c1C | 7.52
O=C(NCc1ccc(S(=O)(=O)Nc2ccc3cn[nH]c3c2)cc1)c1cc2cnccc2[nH]1 | 6.87
COc1cc(C)cc(S(=O)(=O)c2ccc(CNC(=O)c3cnc4nccn4c3)cc2)c1OC | 8.38
COc1cc(C)cc(S(=O)(=O)c2ccc(CNC(=O)c3cnc4[nH]ncc4c3)cc2)c1OC | 6.84
Cc1c(Cl)cccc1S(=O)(=O)c1ccc(CNC(=O)c2ccc3nccn3c2)cc1 | 7.59
CC(=O)c1cccc(S(=O)(=O)c2ccc(CNC(=O)c3cnc4[nH]ncc4c3)cc2)c1 | 8.00
Cc1cc(S(=O)(=O)c2ccc(CNC(=O)c3cnc4[nH]ncc4c3)cc2)c(C)cc1F | 7.43

State its pIC50 on NAMPT (Homo sapiens): `O=C(NCc1ccc(S(=O)(=O)c2ccccc2)cc1)c1ccc2ncncc2c1`
4.79

Please tell me: pIC50 of `COc1cccc(S(=O)(=O)c2ccc(CNC(=O)c3cc4cnccc4[nH]3)cc2)c1OC` , system NAMPT (Homo sapiens)?
7.93

----------
Reported IC50 by item:
Biological target: NAMPT (Homo sapiens, UniProt P43490)
Construct: His tag; host or cells: E. coli
Sequence (P43490 whole entry): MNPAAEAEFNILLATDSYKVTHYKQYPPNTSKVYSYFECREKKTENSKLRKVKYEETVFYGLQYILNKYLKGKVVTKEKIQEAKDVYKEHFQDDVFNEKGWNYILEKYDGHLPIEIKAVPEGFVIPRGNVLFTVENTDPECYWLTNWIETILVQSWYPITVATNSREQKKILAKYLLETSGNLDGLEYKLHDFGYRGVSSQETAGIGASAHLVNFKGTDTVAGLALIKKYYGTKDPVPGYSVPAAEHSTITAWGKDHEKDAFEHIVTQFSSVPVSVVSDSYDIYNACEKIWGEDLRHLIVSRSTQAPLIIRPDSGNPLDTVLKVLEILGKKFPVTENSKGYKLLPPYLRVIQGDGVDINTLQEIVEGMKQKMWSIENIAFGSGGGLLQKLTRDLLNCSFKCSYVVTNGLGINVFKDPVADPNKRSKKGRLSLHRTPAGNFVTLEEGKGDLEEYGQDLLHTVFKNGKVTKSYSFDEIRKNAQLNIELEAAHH
Assay: Biochemical inhibition assay: NAMPT enzymatic reaction, NMN quantified by mass spectrometry
Details: NAMPT enzymatic reaction; read-out: Biochem IC50
All answers are understood in nM, so give the number only.

Entry `O=C(NCc1ccc(S(=O)(=O)c2cccc(-c3ccccc3)c2)cc1)c1cc2ccncc2o1` has what IC50?
13.7

----------
Biological target: NAMPT (Homo sapiens)
Construct: His tag; host or cells: E. coli
Test: Biochemical inhibition assay: NAMPT enzymatic reaction, NMN quantified by mass spectrometry
Details: NAMPT enzymatic reaction; read-out: Biochem IC50
Listed next: entries and their corresponding IC50.
Report as a plain number; the unit nM is understood.

Cc1cc(S(=O)(=O)c2ccc(CNC(=O)c3cc4ccncc4s3)cc2)ccc1F | 7
COc1ccc(C(C)=O)cc1S(=O)(=O)c1ccc(CNC(=O)c2cc3ccncc3o2)cc1 | 7.2

Find the recorded IC50 belonging to `CCCCOc1cc(F)ccc1S(=O)(=O)c1ccc(CNC(=O)c2cc3ccncc3s2)cc1` and report it.
7

----------
Molecular target: NAMPT (Homo sapiens)
Construct: His tag; host or cells: E. coli
Assay: Biochemical inhibition assay: NAMPT enzymatic reaction, NMN quantified by mass spectrometry
Conditions: NAMPT enzymatic assay; read-out: Biochem IC50
readout-type: pIC50
Just the number, please; pIC50 means minus log10 of the concentration in mol/L.

COc1ccc(OC(F)(F)F)cc1S(=O)(=O)c1ccc(CNC(=O)c2cc3cnccc3[nH]2)cc1 | 7.32
COc1ccc(S(=O)(=O)c2ccc(CNC(=O)c3cc4ccncc4o3)cc2)c(C(F)(F)F)c1 | 7.84

We next turn to a different compound, shown below.
Quick one: pIC50 of `CC(C)COc1ccc(S(=O)(=O)c2ccc(CNC(=O)c3ccc4nccn4c3)cc2)cc1` ?
8.66
